- target: FGFR4 (Homo sapiens, UniProt P22455)
- Construct: made in house; host or cells: E. coli derived from BL21, infected with T7 phage
- Sequence (P22455 22-802): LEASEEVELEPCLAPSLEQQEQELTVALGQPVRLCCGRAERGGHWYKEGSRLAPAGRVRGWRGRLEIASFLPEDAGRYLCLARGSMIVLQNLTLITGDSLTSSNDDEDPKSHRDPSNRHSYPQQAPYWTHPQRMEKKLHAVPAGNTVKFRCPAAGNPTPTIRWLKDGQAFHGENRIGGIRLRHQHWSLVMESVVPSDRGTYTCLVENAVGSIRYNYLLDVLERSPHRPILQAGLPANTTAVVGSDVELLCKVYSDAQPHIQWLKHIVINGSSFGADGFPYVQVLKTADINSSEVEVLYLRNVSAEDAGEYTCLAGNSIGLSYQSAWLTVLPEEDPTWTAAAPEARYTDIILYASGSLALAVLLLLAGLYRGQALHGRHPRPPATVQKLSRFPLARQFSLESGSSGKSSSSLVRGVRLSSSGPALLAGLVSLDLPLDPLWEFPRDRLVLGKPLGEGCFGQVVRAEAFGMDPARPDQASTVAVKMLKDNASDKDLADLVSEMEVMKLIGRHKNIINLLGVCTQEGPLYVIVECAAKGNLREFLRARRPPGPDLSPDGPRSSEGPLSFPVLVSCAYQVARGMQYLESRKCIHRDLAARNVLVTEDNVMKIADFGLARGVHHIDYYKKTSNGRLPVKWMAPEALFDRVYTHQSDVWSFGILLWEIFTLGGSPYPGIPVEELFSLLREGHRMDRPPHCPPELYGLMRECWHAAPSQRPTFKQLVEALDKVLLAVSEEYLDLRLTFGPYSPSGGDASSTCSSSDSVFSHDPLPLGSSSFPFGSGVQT
- methodSummary: Kinase binding assay (kinase-tagged T7 phage, qPCR), Kd
- conditionSet: read-out: FGFR4 (Kd nM)
Each entry below lists one item and its recorded Kd value.

Worked set:
>>> value("C[C@@H](Oc1ccc2[nH]nc(-c3ccc(NC(=O)C4CC4)nc3)c2c1)c1c(Cl)cncc1Cl")
"0.1 to 100 nM"
>>> value("CCOc1cc(OC)cc(-c2n[nH]c3ccc(O[C@@H](C)c4c(C)cnnc4C)cc23)c1")
"> 1000 nM"
>>> value("CCN1CCC2(CC1)CC(O)c1cc(-c3n[nH]c4ccc(O[C@H](C)c5c(Cl)cncc5Cl)cc34)ccc1O2 (stereo partly drawn)")
"0.1 to 100 nM"
>>> value("COc1ncc(-c2n[nH]c3ccc(O[C@H](C)c4c(Cl)cncc4Cl)cc23)cc1NC(=O)N1CCOCC1")
"0.1 to 100 nM"
>>> value("C[C@@H](Oc1ccc2[nH]nc(-c3cnc4c(c3)N(C(=O)OCCCN(C)C)CCO4)c2c1)c1c(Cl)cncc1Cl")
"0.1 to 100 nM"

Give recorded Kd with FGFR4 (Homo sapiens, UniProt P22455) for the following molecule: C[C@@H](Oc1ccc2[nH]nc(-c3cnc4c(c3)N(CCN(C)C)CCO4)c2c1)c1c(Cl)cncc1Cl
100 to 250 nM

What do you get for Cc1cnnc(C)c1[C@@H](C)Oc1ccc2[nH]nc(-c3cc(C#N)cc(C#N)c3)c2c1 ?
0.1 to 100 nM

What do you get for C[C@@H](Oc1cc2c(-c3cnc4c(c3)N(S(C)(=O)=O)CCO4)n[nH]c2cc1Cl)c1c(Cl)cncc1Cl ?
0.1 to 100 nM

What do you get for Cc1cc(-c2n[nH]c3ccc(O[C@H](C)c4c(C)cnnc4C)cc23)cc(C#N)c1OC1CCN(C(C)C)CC1 ?
0.1 to 100 nM

What do you get for COc1cc2[nH]nc(-c3cnc4c(c3)N(S(C)(=O)=O)CCO4)c2cc1O[C@H](C)c1c(Cl)cncc1Cl ?
0.1 to 100 nM

What do you get for COc1cc(OC)cc(-c2n[nH]c3ccc(O[C@H](C)c4c(C)cnnc4C)cc23)c1 ?
0.1 to 100 nM

What do you get for Cc1ncc(Cl)c([C@@H](C)Oc2cc3c(-c4cnc5c(c4)N(S(C)(=O)=O)CCO5)n[nH]c3cc2Cl)c1Cl ?
100 to 250 nM

What do you get for Cc1cccc(C(=O)N2CCOc3ncc(-c4n[nH]c5ccc(O[C@H](C)c6c(Cl)cncc6Cl)cc45)cc32)n1 ?
0.1 to 100 nM

What do you get for C[C@@H](Oc1ccc2[nH]nc(-c3cnc(OCC(C)(C)O)c(C#N)c3)c2c1)c1c(Cl)cncc1Cl ?
0.1 to 100 nM

What do you get for Cc1cc(-c2n[nH]c3ccc(O[C@H](C)c4c(Cl)cncc4Cl)cc23)cnc1NC1CCOCC1 ?
0.1 to 100 nM
